Experiment: Lipophilicity determination using RP-HPLC (capacity factor, log k)
Format: physicochemical
Settings: C18, MeOH 55%/H2O 45%
Description: Reversed phase high performance liquid chromatography (RP-HPLC) methods have become popular and are widely used for lipophilicity measurements. […] A Waters Alliance 2695 XE HPLC separation module and a Waters Photodiode Array Detector 2996 (Waters Corp., Milford, MA, USA) were used. […] The HPLC separation process was monitored using Empower™ 2 Chromatography Data Software, Waters 2009 (Waters Corp.). […] Retention times (tR) were measured in minutes. […]
Provide the recorded log k for the entries that follow.
No unit in the answer, please; the number alone is enough.

[Q] Supply measured log k of CNC(=S)NN=Cc1c(O)ccc2cccnc12 [Compound 4i] in your reply.
[A] 0.6193

[Q] Fill in log k for record CN(C)C(=S)N/N=C/c1cccc(Cl)c1Cl [Compound 3c]
[A] 0.7214

[Q] Provide one value: measured log k of CNC(=S)N/N=C/c1cccc(Cl)c1Cl [Compound 3b]
[A] 0.7357

[Q] Give log k for CCNC(=S)N/N=C/c1ccc(Cl)c(Cl)c1 [Compound 3i]
[A] 0.8415
